- tested.system: human OT7T175 (metastin receptor) (human, UniProt Q969F8 1-398)
- Sequence (Q969F8 whole entry L364H): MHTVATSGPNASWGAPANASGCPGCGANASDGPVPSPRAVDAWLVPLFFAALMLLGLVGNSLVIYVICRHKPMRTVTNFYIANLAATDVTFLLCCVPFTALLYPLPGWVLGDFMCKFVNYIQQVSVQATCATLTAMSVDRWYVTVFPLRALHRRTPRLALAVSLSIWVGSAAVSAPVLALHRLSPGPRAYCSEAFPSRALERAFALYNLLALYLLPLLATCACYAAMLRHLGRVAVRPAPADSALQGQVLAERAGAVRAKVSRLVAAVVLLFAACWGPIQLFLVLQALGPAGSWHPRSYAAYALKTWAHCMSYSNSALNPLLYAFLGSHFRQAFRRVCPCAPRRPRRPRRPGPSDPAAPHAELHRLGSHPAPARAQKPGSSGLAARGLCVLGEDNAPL
- test.protocol: cell-based or functional assay
Square brackets hold non-standard residues; d marks the D form. Ends that are not written are not given here. Arg(Me) = CNC(=N)NCCC[C@H](N)C(=O)O; Bta = N[C@@H](Cc1csc2ccccc12)C(=O)O; Cha = N[C@@H](CC1CCCCC1)C(=O)O; azaGly = NNC(=O)O
recorded.metric: intracellular Ca ion level-increasing activity (FLIPR)

{"binder": "[dY]N[Cha]NSF[azaGly]L[Arg(Me)]F-NH2 (N-terminus assumed; SMILES CNC(=N)NCCC[C@H](NC(=O)[C@H](CC(C)C)NC(=O)NNC(=O)[C@H](Cc1ccccc1)NC(=O)[C@H](CO)NC(=O)[C@H](CC(N)=O)NC(=O)[C@H](CC1CCCCC1)NC(=O)[C@H](CC(N)=O)NC(=O)[C@H](N)Cc1ccc(O)cc1)C(=O)N[C@@H](Cc1ccccc1)C(N)=O) [Compound No. 190: [D-Tyr1,Cha3,AzaGly7,Arg(Me)9]MS10]", "value": "10 specific activity to metastin (1-54)"}
{"binder": "YNWNSXGLRF (Cha6; C-terminal amide) [Compound No. 156: [Cha6]MS10]", "value": "2 specific activity to metastin (1-54)"}
{"binder": "YNWNSFGLRW-NH2 [Compound No. 134: [Trp10]MS10]", "value": "30 specific activity to metastin (1-54)"}
{"binder": "YNWNSFGLR[Bta]-NH2 (N-terminus assumed; SMILES CC(C)C[C@H](NC(=O)CNC(=O)[C@H](Cc1ccccc1)NC(=O)[C@H](CO)NC(=O)[C@H](CC(N)=O)NC(=O)[C@H](Cc1c[nH]c2ccccc12)NC(=O)[C@H](CC(N)=O)NC(=O)[C@@H](N)Cc1ccc(O)cc1)C(=O)N[C@@H](CCCNC(=N)N)C(=O)N[C@@H](Cc1csc2ccccc12)C(N)=O) [Compound No. 189: [Ala(3-Bzt)10]MS10]", "value": "10 specific activity to metastin (1-54)"}
{"binder": "YNWNSXGLRF (Nal(2)6; C-terminal amide) [Compound No. 152: [Nal(2)6]MS10]", "value": "5 specific activity to metastin (1-54)"}
